This collection of values is drawn from patent US20230407243A1.

Test system: EKO-35 araC::acrBD408A
So basically: is MIC under 10 µg/mL? Then y. Not under? Then n.

Look over these answered cases.
• CC1(C)S[C@@H]2[C@H](NC(=O)[C@H](N)c3ccccc3)C(=O)N2[C@H]1C(=O)O [ampicillin] = n
• CCCCCCCCCCCCOS(=O)(=O)[O-].[Na+] [SDS, sodium dodecyl sulphate] = n
• CC(=O)O[C@H]1C[C@@]2(C)[C@@H](C[C@@H](O)[C@H]3[C@@]4(C)CC[C@@H](O)[C@@H](C)[C@@H]4CC[C@@]32C)/C1=C(\CCC=C(C)C)C(=O)O [fusidic acid] = y
• [H]/N=C(/N)N[C@H]1[C@H](O)[C@@H](O)[C@H](O[C@@H]2O[C@@H](C)[C@](O)(C=O)[C@H]2O[C@@H]2O[C@@H](CO)[C@H](O)[C@@H](O)[C@@H]2NC)[C@@H](N/C(N)=N\[H])[C@@H]1O [Streptomycin] = y
• CC[n+]1c(-c2ccccc2)c2cc(N)ccc2c2ccc(N)cc21 [ethidium bromide] = y
• COc1ccc(C[C@H](N)C(=O)N[C@H]2[C@@H](O)[C@H](n3cnc4c(N(C)C)ncnc43)O[C@@H]2CO)cc1 [puromycin] = y

## Input Consider the compound COc1cccc2c1C(=O)c1c(O)c3c(c(O)c1C2=O)C[C@@](O)(C(=O)CO)C[C@@H]3O[C@H]1C[C@H](N)[C@H](O)[C@H](C)O1 [doxorubicin] . Is its MIC strictly less than 10 µg/mL?
## Output y

====

The entries below are paired with their reported MICb Combined.
System: EKO-35-Pore
Experiment: Checkerboard synergy (FICI), porinated strain
Assay type: cell-based, Escherichia coli
Conditions: EKO-35 Pore; antibiotic in combination with PAβN
State the answer as a number, implicitly in µg/mL.

// worked examples, MICb Combined included
• CC(=O)NC[C@H]1CN(c2ccc(N3CCOCC3)c(F)c2)C(=O)O1 = 4
• CO[C@@H]1[C@@H](OC(N)=O)[C@@H](O)[C@H](Oc2ccc3c(O)c(NC(=O)c4ccc(O)c(CC=C(C)C)c4)c(=O)oc3c2C)OC1(C)C = 0.13
• Cc1onc(-c2ccccc2)c1C(=O)N[C@@H]1C(=O)N2[C@@H]1SC(C)(C)[C@@H]2C(=O)O = 0.13

## Input Entry `CC[C@H]1OC(=O)[C@H](C)[C@@H](O[C@H]2C[C@@](C)(OC)[C@@H](O)[C@H](C)O2)[C@H](C)[C@@H](O[C@@H]2O[C@H](C)C[C@H](N(C)C)[C@H]2O)[C@](C)(O)C[C@@H](C)C(=O)[C@H](C)[C@@H](O)[C@]1(C)O` has what MICb Combined?
## Output 0.063

## Input Entry `CC(=O)O[C@H]1C[C@@]2(C)[C@@H](C[C@@H](O)[C@H]3[C@@]4(C)CC[C@@H](O)[C@@H](C)[C@@H]4CC[C@@]32C)/C1=C(\CCC=C(C)C)C(=O)O` has what MICb Combined?
## Output 0.06

====

The entries below are paired with their reported Fold change of MICs.
System: EKO-35 araC::mdtEF
Assay: MIC susceptibility profiling, efflux platform
Assay type: cell-based, Escherichia coli
Conditions: EKO-35 araC::mdtEF compared to EKO-35
Procedure: Single colonies were used to inoculate 3 mL of LB followed by incubation at 37° C. for 18 h with aeration at 220 rpm. […] To a 384-well microtiter plate (Corning, untreated polystyrene), 500 nL of compound was dispensed, in duplicate, and serially titrated 2-fold using an Echo 550 acoustic liquid dispenser (Labcyte Inc.). […] To enable background correction post-incubation, the OD600 nm was measured (Biotek Synergy Neo2 microplate reader) prior to incubation. […]
State the answer as a number, implicitly in fold.

* CC[n+]1c(-c2ccccc2)c2cc(N)ccc2c2ccc(N)cc21 [ethidium bromide] | 8
* Nc1ccc(S(=O)(=O)Nc2nccs2)cc1 [Sulfathiazole] | 1
* [H]/N=C(\N/C(=N/[H])NCCCCCCNC(=N)NC(=N)Nc1ccc(Cl)cc1)Nc1ccc(Cl)cc1 [Chlorhexidine] | 1
* NCCCNCCCCNCCCN [Spermine] | 1
* COc1ccc(C[C@H](N)C(=O)N[C@H]2[C@@H](O)[C@H](n3cnc4c(N(C)C)ncnc43)O[C@@H]2CO)cc1 [puromycin] | 1
* CCn1cc(C(=O)O)c(=O)c2cc(F)c(N3CCNCC3)cc21 [norfloxacin] | 1
* O=C(Nc1cccc(Oc2c(F)c(F)c(F)c(F)c2F)c1)c1ccccc1 [compound 1] | 1
* O=c1oc(-c2ccccc2Cl)nn1-c1ccc(C(F)(F)F)cn1 [compound 5] | 16

// below: Fold change of MICs requested for another compound
## Input Entry Nc1ccccc1SCc1nc(-c2ccc(Cl)cc2)no1 [compound 16] has what Fold change of MICs?
## Output 16

====

The entries below are paired with their reported Minimum inhibitory concentration (MIC), K-12.
System: wild-type E. coli K-12 str. BW25113
Assay: microbe, parasite or virus in culture
Assay type: cell-based, Escherichia coli
Conditions: Table 10; without pore; technical duplicate
State the answer as a number, implicitly in µg/mL.

// worked examples, Minimum inhibitory concentration (MIC), K-12 included
• C[C@H](CCC(=O)NCCS(=O)(=O)[O-])[C@H]1CC[C@H]2[C@@H]3CC[C@@H]4C[C@H](O)CC[C@]4(C)[C@H]3C[C@H](O)[C@]12C.[Na+] [sodium taurodeoxycholate] = 1000
• O=C(Nc1ccccc1)Nc1ccc(Br)c(C(F)(F)F)c1 = 320
• CC(C)c1ccc(C=C(C#N)c2nc3ccccc3[nH]2)cc1 = 320

## Input Entry `N#CC(C#N)=NNc1ccc(-n2ccc(C(F)(F)F)n2)cc1` has what Minimum inhibitory concentration (MIC), K-12?
## Output 640

## Input Entry `CC(C)(C)c1cc(C(=O)NNC(=O)Nc2cccc3ccccc23)n(Cc2ccc(F)cc2)n1` has what Minimum inhibitory concentration (MIC), K-12?
## Output 320

## Input Entry `O=c1oc(-c2ccccc2Cl)nn1-c1ccc(C(F)(F)F)cn1` has what Minimum inhibitory concentration (MIC), K-12?
## Output 320

## Input Entry `O=C(Nc1ccccc1C(=O)Nc1nnc(C(F)(F)F)s1)c1ccccc1Cl` has what Minimum inhibitory concentration (MIC), K-12?
## Output 320

## Input Entry `COC(=O)c1sc(N2CCCC2)c(C#N)c1-c1cccs1` has what Minimum inhibitory concentration (MIC), K-12?
## Output 160

====

Tested on: EKO-35 strains with integrated RND tripartite efflux pumps (AcrB, AcrEF, AcrD, and MdtEF) with pGDP2:emrE or empty pGDP-2
Experiment: Efflux pump interplay MIC profiling (pGDP2:emrE)
Assay type: cell-based, Escherichia coli
Conditions: strain acrB; Pore −
quantity.name: Fold Change from EKO-35
Answer field: number only, no words.

// worked examples, Fold Change from EKO-35 included
• CO[C@@H]1[C@@H](OC(N)=O)[C@@H](O)[C@H](Oc2ccc3c(O)c(NC(=O)c4ccc(O)c(CC=C(C)C)c4)c(=O)oc3c2C)OC1(C)C [novobiocin] = 512
• C[n+]1c2cc(N)ccc2cc2ccc(N)cc21.[Cl-] [acriflavine] = 16
• CN(C)c1ccc(O)c2c1C[C@H]1C[C@H]3[C@H](N(C)C)C(O)=C(C(N)=O)C(=O)[C@@]3(O)C(O)=C1C2=O [minocycline] = 4

// below: Fold Change from EKO-35 requested for another molecule
## Input Entry CC[n+]1c(-c2ccccc2)c2cc(N)ccc2c2ccc(N)cc21 [ethidium bromide] has what Fold Change from EKO-35?
## Output 64

====

Test system: wild-type E. coli K-12 str. BW25113
Assay: microbe, parasite or virus in culture
Assay type: cell-based, Escherichia coli
Conditions: Escherichia coli, BW25113; Table 10; without pore; technical duplicate; read-out: Minimum inhibitory concentration (MIC), K-12
quantity.name: MIC (µg/mL)
State the answer as a number, implicitly in µg/mL.

// worked examples, MIC included
* CCCCCCCCCCCCOS(=O)(=O)[O-].[Na+] [SDS, sodium dodecyl sulphate] | 1000
* [H]/N=C(/N)N[C@H]1[C@H](O)[C@@H](O)[C@H](O[C@@H]2O[C@@H](C)[C@](O)(C=O)[C@H]2O[C@@H]2O[C@@H](CO)[C@H](O)[C@@H](O)[C@@H]2NC)[C@@H](N/C(N)=N\[H])[C@@H]1O [Streptomycin] | 6.25
* O=C(N[C@H](CO)[C@H](O)c1ccc([N+](=O)[O-])cc1)C(Cl)Cl [chloramphenicol] | 6.5
* CN[C@H](CC(C)C)C(=O)N[C@H]1C(=O)N[C@@H](CC(N)=O)C(=O)N[C@H]2C(=O)N[C@H]3C(=O)N[C@H](C(=O)N[C@H](C(=O)O)c4cc(O)cc(O)c4-c4cc3ccc4O)[C@H](O)c3ccc(c(Cl)c3)Oc3cc2cc(c3O[C@@H]2O[C@H](CO)[C@@H](O)[C@H](O)[C@H]2O[C@H]2C[C@](C)(N)[C@H](O)[C@H](C)O2)Oc2ccc(cc2Cl)[C@H]1O [vancomycin] | 200

## Input Entry CN[C@@H]1[C@H](O)[C@H](NC)[C@H]2O[C@@]3(O)C(=O)C[C@@H](C)O[C@H]3O[C@@H]2[C@H]1O [Spectinomycin] has what MIC?
## Output 25
